Test system: TAB113
Experiment: qHTS profiling for inhibitors of Plasmodium falciparum proliferation (AID 504749); also: nearly all actives have a fitted effect of over 60% in size
Settings: P. falciparum in erythrocytes, SYBR Green DNA, 72 h; series mostly up to 28.7 µM
Records with an inconclusive call do not appear. Active and inactive are the calls of the source. Calls follow the shape of the dose curve; as a rule, active = well fitted inhibition curve with a large enough effect; inconclusive = small, poorly fitted or top-dose-only effect; inactive = flat fitted curve, though single readings scatter.
Outcome (select one): active, inactive

[in] Which outcome did this test record for the compound CC1CN(c2c(F)c(N)c3c(=O)c(C(=O)O)cn(C4CC4)c3c2F)CC(C)N1 (configuration not stated) ?
[out] inactive

[in] Which outcome did this test record for the compound `CCCC[C@H]1C(=O)N(c2ccccc2)N(c2ccc(O)cc2)C1=O` ?
[out] inactive

[in] Which outcome did this test record for the compound Cc1onc(-c2c(F)cccc2Cl)c1C(=O)NC1C(=O)N2C1SC(C)(C)C2C(=O)O (configuration not stated) ?
[out] inactive

[in] Which outcome did this test record for the compound O=C1Oc2ccccc2C(=O)C1C(CC(O)c1ccc(-c2ccc(Br)cc2)cc1)c1ccccc1 (configuration not stated) ?
[out] inactive

[in] Which outcome did this test record for the compound CC1OC(OCC2OC(Oc3c(-c4ccc(OCCO)c(OCCO)c4)oc4cc(OCCO)cc(O)c4c3=O)C(O)C(O)C2O)[C@@H](O)C(O)C1O (some centres not stated) ?
[out] inactive

[in] Which outcome did this test record for the compound `CO[C@H]1C[C@@H]2CC[C@@H](C)[C@@](O)(O2)C(=O)C(=O)N2CCCC[C@H]2C(=O)O[C@H]([C@H](C)C[C@@H]2CC[C@@H](O)[C@H](OC)C2)CC(=O)[C@H](C)/C=C(\C)[C@@H](O)[C@@H](OC)C(=O)[C@H](C)C[C@H](C)/C=C/C=C/C=C/1C` ?
[out] active

[in] Which outcome did this test record for the compound `C/C(=C(/CCO)SS/C(CCO)=C(\C)N(C=O)Cc1cnc(C)nc1N)N(C=O)Cc1cnc(C)nc1N` ?
[out] inactive

[in] Which outcome did this test record for the compound CCC(C(=O)C(C)C(O)C(C)CCc1ccc(C)c(O)c1C(=O)O)C1OC(CC)(C2CC[C@@](O)(CC)C(C)O2)CC1C (some centres not stated) ?
[out] active

[in] Which outcome did this test record for the compound `CCN(CC)CC(=O)Nc1c(C)cc(C)cc1C` ?
[out] inactive

[in] Which outcome did this test record for the compound `Oc1cc2cc(CCN3CCN(c4nsc5ccccc45)CC3)c(Cl)cc2[nH]1` ?
[out] inactive

[in] Which outcome did this test record for the compound `CC[C@@]1(O)C[C@H](O[C@H]2C[C@@H](N(C)C)[C@@H](O[C@H]3C[C@@H](O)[C@@H](O[C@H]4CCC(=O)[C@@H](C)O4)[C@@H](C)O3)[C@@H](C)O2)c2c(cc3c(c2O)C(=O)c2c(O)cccc2C3=O)[C@H]1C(=O)OC` ?
[out] active

[in] Which outcome did this test record for the compound CC[C@@H](C)C(N)C(=O)O (some centres not stated) ?
[out] inactive

[in] Which outcome did this test record for the compound CCCCC(=O)O[C@]1(C(=O)CO)CCC2C3CCC4=CC(=O)CCC4(C)C3C(O)CC21C (some centres not stated) ?
[out] inactive

[in] Which outcome did this test record for the compound CC(CCC(=O)O)C1CCC2C3C(=O)C[C@@H]4CC(=O)CC[C@@]4(C)C3CC(=O)[C@]12C (some centres not stated) ?
[out] inactive

[in] Which outcome did this test record for the compound CNC1C(O)C(OC2C(NC(=O)C(O)CN)CC(N)C(OC3OC(CN)C(O)C(O)C3O)C2O)OCC1(C)O (configuration not stated) ?
[out] inactive

[in] Which outcome did this test record for the compound `Cc1ccc(Nc2ncccc2C(=O)O)cc1C` ?
[out] inactive

[in] Which outcome did this test record for the compound CC1C(=O)C(=O)C=CN1C (configuration not stated) ?
[out] inactive

----------
Test system: PAD
Experiment: qHTS profiling for inhibitors of Plasmodium falciparum proliferation (AID 504749); also: nearly all actives have a fitted effect of over 60% in size
Details: P. falciparum in erythrocytes, SYBR Green DNA, 72 h; series mostly up to 28.7 µM
Results filed as inconclusive are left out. The source made the active and inactive calls. The call rests on the fitted dose curve; in most records, active means well fitted inhibition curve with a large enough effect; inconclusive means small, poorly fitted or top-dose-only effect; inactive means flat fitted curve, though single readings scatter.
Outcome (select one): active, inactive

[in] Which outcome did this test record for the molecule O=C(O)C(O)c1ccccc1 (centres undefined) ?
[out] inactive

[in] Which outcome did this test record for the molecule CC(=O)OCC(=O)[C@@]1(O)CCC2C3CCC4=CC(=O)C=CC4(C)C3C(O)C[C@]21C (some centres undefined) ?
[out] inactive

[in] Which outcome did this test record for the molecule CCCCN1CC(O)C(O)C(O)C1CO (centres undefined) ?
[out] inactive

[in] Which outcome did this test record for the molecule CCCCCCCCCCCC(=O)OCC(O)C1OCC(O)C1O (centres undefined) ?
[out] inactive

[in] Which outcome did this test record for the molecule O=C(O)CC(O)CC(O)/C=C/c1c(C2CC2)nc2ccccc2c1-c1ccc(F)cc1 (centres undefined) ?
[out] inactive

[in] Which outcome did this test record for the molecule OCC1O[C@@H](O[C@@H]2C(CO)OC(O)C(O)C2O)C(O)C(O)C1O (some centres undefined) ?
[out] inactive

[in] Which outcome did this test record for the molecule `CC1(C)OC[C@@H]2O[C@@]3(C(=O)O)OC(C)(C)O[C@@H]3[C@@H]2O1` ?
[out] inactive

[in] Which outcome did this test record for the molecule CC1C(=O)C(=O)C=CN1C (centres undefined) ?
[out] inactive

[in] Which outcome did this test record for the molecule CNC1C(O)C(OC2C(N)CC(N)C(OC3OC(CN)=CCC3N)C2O)OCC1(C)O (centres undefined) ?
[out] inactive

[in] Which outcome did this test record for the molecule CC(c1ncncc1F)[C@](O)(Cn1cncn1)c1ccc(F)cc1F (some centres undefined) ?
[out] inactive

[in] Which outcome did this test record for the molecule CC(O)C1CCC2C3CCC4CC(O)CCC4(C)C3CCC12C (centres undefined) ?
[out] inactive

[in] Which outcome did this test record for the molecule `C#C[C@@]1(O)CC[C@@H]2[C@H]3CCC4=C/C(=N\O)CC[C@H]4[C@@H]3CC[C@]21CC` ?
[out] inactive

[in] Which outcome did this test record for the molecule `CC1=C(/C=C/C(C)=C\C=C\C(C)=C\C=C\C=C(C)\C=C\C=C(C)\C=C\C2=C(C)C[C@@H](O)CC2(C)C)C(C)(C)C[C@H](O)C1` ?
[out] active

[in] Which outcome did this test record for the molecule Cc1onc(-c2c(F)cccc2Cl)c1C(=O)NC1C(=O)N2C1SC(C)(C)C2C(=O)O (centres undefined) ?
[out] inactive

[in] Which outcome did this test record for the molecule `O=C(O)c1ccc(N[C@@H]2OC[C@@H](O)[C@@H](O)[C@@H]2O)cc1` ?
[out] inactive

[in] Which outcome did this test record for the molecule CO/N=C(/C(=O)N[C@@H]1C(=O)N2C(C(=O)O)=C(CSC(=O)c3ccco3)CSC12)c1csc(N)n1 (some centres undefined) ?
[out] inactive

[in] Which outcome did this test record for the molecule C=C(CC[C@@H](C)[C@H]1CCC2[C@]1(C)CC[C@]13C[C@@]14CCC(OC(=O)/C=C/c1ccc(O)c(OC)c1)C(C)(C)[C@@H]4CC[C@@]23C)C(C)C (some centres undefined) ?
[out] inactive

[in] Which outcome did this test record for the molecule C=CC1CN2CCC1CC2[C@@H](O)c1ccnc2ccc(OC)cc12 (some centres undefined) ?
[out] active

[in] Which outcome did this test record for the molecule C=C[C@@]1(C)C[C@H](OC(=O)CSC(C)(C)CNC(=O)[C@@H](N)C(C)C)[C@@]2(C)C(C)CC[C@@]3(CCC(=O)[C@@H]32)[C@H](C)[C@H]1O (some centres undefined) ?
[out] active

----------
Test system: TAB113
Experiment: qHTS profiling for inhibitors of Plasmodium falciparum proliferation (AID 504749); also: nearly all actives have a fitted effect of over 60% in size
Settings: P. falciparum in erythrocytes, SYBR Green DNA, 72 h; series mostly up to 28.7 µM
Protocol: NIH National Institute of Allergy and Infectious Diseases [NIAID] NIH Chemical Genomics Center [NCGC] […] Because mature erythrocytes lack DNA, only Plasmodium-derived DNA is detected. NCGC Assay Protocol Summary: The SYBR Green viability assay was adapted from a method described previously (Plouffe et al., 2008). […] The following morning, fluorescence intensity at 485(14) nm excitation and 535(25) nm emission wavelengths was measured on an EnVision (Perkin Elmer) plate reader. […]
Inconclusive results are not listed. Calls of active or inactive are those of the source. Calls follow the shape of the dose curve; as a rule, active = well fitted inhibition curve with a large enough effect; inconclusive = small, poorly fitted or top-dose-only effect; inactive = flat fitted curve, though single readings scatter.
Outcome (select one): yes (active), no (inactive)

[in] Which outcome did this test record for the compound O=C1NC(=O)C2C3C=CC(C3)C12 (stereo unspecified) ?
[out] no

[in] Which outcome did this test record for the compound `C=C1/C(=C\C=C2/CCC[C@]3(C)[C@@H]([C@H](C)/C=C/[C@@H](O)C4CC4)CC[C@@H]23)C[C@@H](O)C[C@@H]1O` ?
[out] no

[in] Which outcome did this test record for the compound `CCN(CC)C(=O)[C@@]1(c2ccccc2)C[C@@H]1CN` ?
[out] no

[in] Which outcome did this test record for the compound CCCCC(=O)OCC(=O)[C@]1(O)Cc2c(O)c3c(c(O)c2[C@H](OC2CC(NC(=O)C(F)(F)F)C(O)C(C)O2)C1)C(=O)c1c(OC)cccc1C3=O (stereo partly specified) ?
[out] yes

[in] Which outcome did this test record for the compound CC1(Cn2ccnn2)[C@H](C(=O)O)N2C(=O)C[C@H]2S1(=O)=O (stereo partly specified) ?
[out] no

[in] Which outcome did this test record for the compound `CCCCCCCCCCCCCCCC(=O)OC[C@H](O)[C@H]1OC[C@@H](O)[C@@H]1O` ?
[out] no

[in] Which outcome did this test record for the compound O=c1ccn(C2OC(COP(=O)(O)OC3C(CO)OC(n4ccc(=O)[nH]c4=O)C3O)C(O)C2O)c(=O)[nH]1 (stereo unspecified) ?
[out] no

[in] Which outcome did this test record for the compound `C[S+](C)CC[C@H](N)C(=O)O` ?
[out] no

[in] Which outcome did this test record for the compound Cc1ccc(/C=C2/C(=O)C3(C)CCC2C3(C)C)cc1 (stereo unspecified) ?
[out] no

[in] Which outcome did this test record for the compound CC1(C)CC1C(=O)N/C(=C/CCCCSCC(N)C(=O)O)C(=O)O (stereo unspecified) ?
[out] no

[in] Which outcome did this test record for the compound CNC1CCc2cc(OC)c(OC)c(OC)c2-c2ccc(OC)c(=O)cc21 (stereo unspecified) ?
[out] no
